biological target: Deep Vent® (3′→5′ exo-) DNA polymerase (DV) (Pyrococcus sp., UniProt Q51334, D141A/DEL493-1029/E143A); construct: purchased New England Biolabs; host or cells: E. coli; assay: Primer extension assay with Deep Vent (exo-) DNA polymerase; assay type: biochemical, Pyrococcus species GB-D; details: 55° C., DNA template PF22 (T/U triphosphates) or PF24 (C triphosphates), three contiguous units
Sequence (Q51334 other isoform, or with tags, fused parts or gaps D141A/E143A/DEL493-1029): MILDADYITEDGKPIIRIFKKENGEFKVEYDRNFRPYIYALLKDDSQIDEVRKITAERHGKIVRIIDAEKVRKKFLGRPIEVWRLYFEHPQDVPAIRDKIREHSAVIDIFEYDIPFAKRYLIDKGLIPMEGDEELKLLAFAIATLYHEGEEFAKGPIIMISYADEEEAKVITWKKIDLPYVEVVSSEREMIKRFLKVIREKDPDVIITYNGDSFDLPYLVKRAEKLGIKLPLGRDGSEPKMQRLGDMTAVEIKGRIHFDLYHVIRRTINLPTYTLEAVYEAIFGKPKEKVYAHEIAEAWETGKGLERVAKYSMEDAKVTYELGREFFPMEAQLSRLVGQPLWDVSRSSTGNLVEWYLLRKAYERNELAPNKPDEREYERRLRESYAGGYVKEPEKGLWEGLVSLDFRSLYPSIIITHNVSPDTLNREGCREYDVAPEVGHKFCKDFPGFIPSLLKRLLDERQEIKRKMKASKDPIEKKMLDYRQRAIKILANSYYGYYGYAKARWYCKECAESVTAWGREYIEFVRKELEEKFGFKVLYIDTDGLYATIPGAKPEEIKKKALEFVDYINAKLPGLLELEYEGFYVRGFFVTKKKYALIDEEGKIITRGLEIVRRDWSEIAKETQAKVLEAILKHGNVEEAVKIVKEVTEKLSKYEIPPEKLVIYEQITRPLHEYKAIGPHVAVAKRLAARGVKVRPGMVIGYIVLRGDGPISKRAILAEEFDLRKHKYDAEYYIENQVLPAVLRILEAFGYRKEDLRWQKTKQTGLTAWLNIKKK

{"MOLECULE": "Nc1ccn([C@@H]2O[C@H](COP(=O)(O)OP(=O)(O)OP(=O)(O)O)[C@@H](O)[C@@H]2F)c(=O)n1 [2′F-araCTP]", "Order of efficiency of incorporation": "dCTP~2′F-rCTP~2′F-araCTP"}
{"MOLECULE": "Nc1ccn([C@H]2C[C@H](O)[C@@H](COP(=O)(O)OP(=O)(O)OP(=O)(O)O)O2)c(=O)n1 [dCTP]", "Order of efficiency of incorporation": "dCTP~2′F-rCTP~2′F-araCTP"}
{"MOLECULE": "Nc1ccn([C@@H]2O[C@H](COP(=O)(O)OP(=O)(O)OP(=O)(O)O)[C@@H](O)[C@H]2F)c(=O)n1 [2′F-rCTP, reference compound]", "Order of efficiency of incorporation": "dCTP~2′F-rCTP~2′F-araCTP"}
